I'd appreciate it if you could supply protein stability index values for the items below.
B1: TSPAN10 (parent)
chain: EGCGPPLRRWLRANLAASGGYAIA

variants of: B1; experiment: protein stability index of a GFP-peptide fusion (GPS, HEK-293T) (PSI 1-6); higher = more stable; details: c terminus: a fixed tail appended;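 further: lentivirally expressed fusions sorted by FACS into six bins by GFP to DsRed ratio, PSI derived from sequencing read proportions per bin multiplied by bin number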
// no unit, no text: just the number

Find the recorded protein stability index belonging to `A22P` and report it.
1.93

`S18P` ?
2.28

Same question for `G19W` please.
3.26

Next record, please: `I23D`
2.35

What about `R8E` ?
1.26

Please answer likewise for `G20H`
2.03

Query `E1T` next
1.39

Now consider `A24G` and answer again.
1.65

Queued: `G2N`
1

Next variant up: `R8L`
1.37

Repeat for the following variant: `A17I`
2.67

Now this one: `W10F`
1.61

Thanks! And `Y21R` ?
2.3

Ok, now `A22K`
1.75

Next up: `N14D`
1.86

# iterate: `A13C`
2.93

Same thing, different variant: `N14S`
1.93

Another variant to look at: `G20T`
1.63

Next variant up: `L7A`
1.91

Input `G19P`
2.13

Okay, and `L11G` ?
1.74

# iterate: `R12S`
2.58

Consider next the variant `A17P` in the same way.
1.81

Also check `R9Q`
1.81

Similarly, `A17L` ?
1.63

What about this variant? `R9M`
1.65

Okay, and `A24K` ?
2.15

Try this variant too: `R8N`
1.83

Same question for `L7W` please.
2.05

What would you report for `G4V` ?
2.25

Try the variant `R12L`
3.2

Another variant to look at: `L7T`
2.97

Similarly, `L11V` ?
1.82

Next record, please: `G2V`
1.53

Same for `L7I`
1.39

One more variant: `R8F`
1.3

Lookup `S18A`
1.97

Cool, now `G20P`
2

# iterate: `R9K`
1.79

And then `Y21M` , what is it?
2.17

Follow-up entry: `R8D`
1.47

Continue with `E1Q`
1.38

// query: `C3R`
1.4

Cool, now `A13H`
2.26

Do the same for `P6M` please
1.84

Could you do the same for `W10E` , please?
3.4

Data provenance: the supplement of paper PMC10567573
